system: RAW-Dual (murine macrophage reporter line); experiment: NF-kB reporter (SEAP) activity fold change vs agonist alone; higher = enhanced NF-kB activity; settings: modulator concentration 10 µM; agonist: LPS 0.1 ug/mL
Hi, to clarify the labels: Met covers NF-kB reporter from 1 upward, Not met covers anything below 1.

>  <compound>
CN1CCN(C(=O)N2CCC3(CC2)CC3(F)F)CC1

>  <assigned category>
Not met

$$$$

Determine whether measured NF-kB reporter meets or exceeds 1 for CC(=O)Nc1ccc2nc(NC(=O)c3ccco3)sc2c1
Met

Would you mind doing CC(C)(O)CNc1nc(Nc2ccnc(C(F)(F)F)c2)nc(-c2cccc(C(F)(F)F)n2)n1 as well?
Met

Also need COc1ccc2c(c1)c(CC(=O)O)c(C)n2C(=O)c1ccc(Cl)cc1 , thanks.
Met

// repeat for O=C(CC1Sc2ccccc2NC1=O)Nc1ccccc1 (stereo unspecified) and report
Not met

Entry to check: CCOc1ccc2c(c1)C(C)=CC(C)(C)N2
Met

----------
test system: RAW-Dual (murine macrophage reporter line); experiment: viability score (confluency relative to resting cells, overnight) (fraction); higher = more viable, active = viable (0.7 or more); details: modulator concentration 10 µM
parameter: viability score
The answer should be written as a number, with no unit following it.

>  <molecule>
Cc1ccc(N2C(=O)C(=Cc3cccc([N+](=O)[O-])c3)SC2=S)cc1

>  <viability score>
0.996

$$$$
>  <molecule>
Cc1cc(=O)n(-c2ccccc2)n1C

>  <viability score>
0.995

$$$$
>  <molecule>
CCS(=O)(=O)N1CCC(Oc2cc(C)nc(C)n2)CC1

>  <viability score>
0.997

$$$$

Any idea what viability score was measured for CN1CCN(c2ccc(-c3cccc(NC(=O)COc4ccc(Cl)cc4Cl)c3)nn2)CC1 ?
0.982

Consider next the molecule O=C(O)CCCCCN1C(=O)C(=Cc2cn(-c3ccccc3)nc2-c2cccs2)SC1=S in the same way.
1

Quick one: CCN(CC)C(=S)SSC(=S)N(CC)CC
0.461

Also need C=CCNC(=O)COc1ccccc1C , thanks.
1

Also need O=c1[nH]cnc2ccccc12 , thanks.
0.561

----------
test system: RAW-Dual (murine macrophage reporter line); test: NF-kB reporter (SEAP) activity fold change vs agonist alone; higher = enhanced NF-kB activity; details: modulator concentration 10 µM; agonist: MPLA […]
Let's look at some compounds and their measured NF-kB reporter.
Form field (numeric): enter value without unit.

Field: example entries. Status: answers known.
>  <chemical smiles>
O=C(COC(=O)c1ccc2ccccc2n1)c1ccc(Br)cc1

>  <tested on>
RAW-Dual (murine macrophage reporter line)

>  <NF-kB reporter>
1.06

$$$$
>  <chemical smiles>
CCCCCOC(=O)CSc1nnc(-c2ccc(Cl)cc2Cl)o1

>  <tested on>
RAW-Dual (murine macrophage reporter line)

>  <NF-kB reporter>
0.99

$$$$
>  <chemical smiles>
CCOc1ccc(N2CCN(CC(=O)O)C2=O)cc1

>  <tested on>
RAW-Dual (murine macrophage reporter line)

>  <NF-kB reporter>
1.02

$$$$

With those in mind, consider the next compound.
Requested read-out: NF-kB reporter. Entry: CCS(=O)(=O)N1CC(CC#N)(n2cc(-c3ncnc4[nH]ccc34)cn2)C1
2.88

----------
test system: RAW-Dual (murine macrophage reporter line); experiment: NF-kB reporter (SEAP) activity fold change vs agonist alone; higher = enhanced NF-kB activity; settings: modulator concentration 10 µM; agonist: MPLA […]
parameter: NF-kB reporter
Write the number on its own, no unit after it.

>  <chemical smiles>
COc1cc(C(=O)NCCCCc2ccccc2)cc(OC)c1OC

>  <NF-kB reporter>
0.994

$$$$
>  <chemical smiles>
Nc1ccc(S(N)(=O)=O)cc1

>  <NF-kB reporter>
1

$$$$
>  <chemical smiles>
CCc1ccc2nc(NCCCN3CCOCC3)sc2c1

>  <NF-kB reporter>
0.971

$$$$

Find the recorded NF-kB reporter belonging to Cc1cnc2c(c1N1CCC(Cc3ccccc3)CC1)c(=O)n(C)c(=O)n2C and report it.
0.996

----------
system: RAW-Dual (murine macrophage reporter line); experiment: IRF reporter (Lucia luciferase) activity fold change vs agonist alone; higher = enhanced IRF activity; details: modulator concentration 10 µM; agonist: 3'3'-cGAMP 10 ug/mL
Parameter IRF reporter: see the listing below.
Please reply with the number alone, leaving off any unit.

The following molecules have reported results that may help.
>  <molecule>
O=C(c1ccc(-c2nc3ccccc3s2)s1)N1CCOCC1

>  <IRF reporter>
0.879

$$$$
>  <molecule>
COc1cccc(CC(=O)Nc2ccc(CC(=O)N3CCC(O)CC3)cc2)c1

>  <IRF reporter>
0.884

$$$$
>  <molecule>
CC(=O)Nc1ccc(C(=O)Nc2ccccc2)c(NC(C)=O)c1

>  <IRF reporter>
0.726

$$$$

Please provide the recorded IRF reporter for CCOC(N)=O , tested on RAW-Dual (murine macrophage reporter line).
0.927

Also, O=S(=O)(NCCOCc1ccccc1)c1ccccc1 please.
1.02

----------
test system: RAW-Dual (murine macrophage reporter line); experiment: IRF reporter (Lucia luciferase) activity fold change vs agonist alone; higher = enhanced IRF activity; conditions: modulator concentration 10 µM; agonist: MPLA […]
parameter: IRF reporter
Number, no unit, nothing else.

Some solved entries appear below for comparison.
>  <chemical smiles>
O=C(CCC1CCCCC1)Nc1ccc(Br)cc1

>  <tested on>
RAW-Dual (murine macrophage reporter line)

>  <IRF reporter>
0.976

$$$$
>  <chemical smiles>
CN1CCC(=C2c3ccccc3C=Cc3ccccc32)CC1.Cl

>  <tested on>
RAW-Dual (murine macrophage reporter line)

>  <IRF reporter>
0.974

$$$$

Consider now this further molecule.
Which IRF reporter value is on record for COc1cc(O)c(C(=O)Nc2nc(C(=O)NCCN(C(C)C)C(C)C)cs2)cc1OC ?
0.973

----------
NF-kB reporter listing for selected compounds.
system: RAW-Dual (murine macrophage reporter line); assay: NF-kB reporter (SEAP) activity fold change vs agonist alone; higher = enhanced NF-kB activity; details: modulator concentration 10 µM; agonist: CpG ODN 1826 0.5 ug/mL
Answer as a number with no unit attached.

>  <compound>
Clc1ccc(Cn2c(CN3CCCC3)nc3ccccc32)cc1 [Prestw-227]

>  <readout value>
0.369

$$$$
>  <compound>
Cc1ccc(/C(=C\CN2CCCC2)c2ccccn2)cc1.Cl.O

>  <readout value>
0.96

$$$$
>  <compound>
O=c1c(O)c(-c2ccc(O)c(O)c2)oc2cc(O)cc(O)c12

>  <readout value>
1.06

$$$$
>  <compound>
CC1=NN(C(=O)CCCc2ccccc2)C(O)(c2ccc(Cl)cc2)C1 (stereo not given)

>  <readout value>
0.923

$$$$
>  <compound>
COc1ccccc1-c1cc(-c2ccccc2)nc(SCC(=O)c2cc3ccccc3oc2=O)c1C#N

>  <readout value>
0.981

$$$$
>  <compound>
O=C(NN=Cc1sc2ccccc2c1Cl)c1ccncc1

>  <readout value>
0.918

$$$$
>  <compound>
O=C1C2C3C=CC(C4CC34)C2C(=O)N1N=Cc1ccc(-c2ccc(Cl)cc2)o1 (stereo not given)

>  <readout value>
1.01

$$$$
>  <compound>
CNC1CCCN(c2c(F)cc3c(=O)c(C(=O)O)cn(C4CC4)c3c2OC)C1 (stereo not given)

>  <readout value>
0.783

$$$$
>  <compound>
CN1C(=O)OC(C)(C)C1=O

>  <readout value>
1.01

$$$$
>  <compound>
CCS(=O)(=O)N1N=C(c2ccc(NS(C)(=O)=O)cc2)CC1c1ccccc1 (stereo not given)

>  <readout value>
0.947

$$$$

I have this compound here, CN1C(=O)C(=Cc2cccc3ccccc23)SC1=S , and I need its recorded NF-kB reporter.
0.909

----------
tested on: RAW-Dual (murine macrophage reporter line); test: viability score (confluency relative to resting cells, overnight) (fraction); higher = more viable, active = viable (0.7 or more); details: modulator concentration 10 µM
Each record here notes measured viability score.
Enter a number only.

Which viability score is listed for CC1(C)Cc2ccccc2C(C[N+](=O)[O-])=N1 ?
0.997

Try this molecule too: O=C1OC(c2ccc3ccccc3c2)=NC1=Cc1ccc(Br)c([N+](=O)[O-])c1
0.998

And the next one, Cc1ccc(NC(=O)CSc2nc3ccccc3[nH]2)cc1.Cl ?
0.388

Another: CC1CCC2C(C)(C)C3CC12CCC3(C)O (stereo not given)
1.05

Another molecule to look at: CCOC(=O)c1ccc2nc(NC(=O)c3ccco3)sc2c1
1.01

----------
test system: RAW-Dual (murine macrophage reporter line); assay: NF-kB reporter (SEAP) activity fold change vs agonist alone; higher = enhanced NF-kB activity; settings: modulator concentration 10 µM; agonist: LPS 0.1 ug/mL
parameter: NF-kB reporter
Please give only the number in your answer, with no unit.

These recorded examples may help you get a feel for the data.
>  <molecule>
CC1CC(=O)C2=C(C1)OC(N)=C(C#N)C2c1ccc(F)cc1 (stereo not drawn)

>  <NF-kB reporter>
1.01

$$$$
>  <molecule>
Cl.N=C(N)NCCC[C@H](N)C(=O)O

>  <NF-kB reporter>
0.995

$$$$

In the following, a different molecule is considered.
For the molecule shown here, CCCC1CCC(c2ccc(C(=O)NNC(=O)c3ccc(C4CCC(CCC)CC4)cc3)cc2)CC1 (stereo not drawn) , give the reported NF-kB reporter.
1.01
